System: U2OS
Experiment: Multiplex assay against U2OS
Assay type: toxicity, cell-based
Conditions: human, 24 h, 1 µM, compound concentration 1 uM, replicate 2
Non-standard residues stand in square brackets, D forms with d. Residues, ends and D or L forms follow the SMILES beside them.
Define the label as criterion met when Population Mitochondria Different-Phenotype (%) is strictly less than 3% and as criterion not met in all remaining cases.

{"columns": ["MOLECULE", "TEST_TARGET", "CLASS"],
 "data": [
  ["Cc1sc2c(c1C)C(c1ccc(Cl)cc1)=N[C@H](CC(=O)OC(C)(C)C)c1nnc(C)n1-2", "U2OS", "criterion met"],
  ["Cc1cc(-c2ccc3c(c2)CC[C@H]3N2CC3(CCN(C(=O)Cc4cn5cc(C)sc5n4)CC3)C2)ncn1", "U2OS", "criterion met"],
  ["COc1ccc2c(c1OCc1ccccc1)C[C@@H](C(=O)O)N(C(=O)C(c1ccccc1)c1ccccc1)C2", "U2OS", "criterion not met"],
  ["Cc1nn(C)c2nc(NNC(=O)Nc3cc(Cl)nc(Cl)c3)cc(C(C)C)c12", "U2OS", "criterion not met"],
  ["Cc1ccc(OCC(O)C(C)NC(C)C)c2c1CCC2.Cl (centres undefined)", "U2OS", "criterion not met"],
  ["COc1cc2nc(N3CCN(C(=O)COc4c(OC)cccc4C(C)C)CC3)nc(N)c2cc1OC.Cl.Cl", "U2OS", "criterion not met"],
  ["C[C@@H]1CC(=O)Nc2cccc(-c3ccc4c(c3)c(-c3cnn(C)c3)nn4C)c2N1", "U2OS", "criterion met"],
  ["OCCCNc1cc(-c2ccnc(Nc3cccc(Cl)c3)n2)ccn1", "U2OS", "criterion not met"],
  ["O=C(Nc1cc(-c2ccccc2)nn1-c1ccccc1F)c1ccc([N+](=O)[O-])cc1", "U2OS", "criterion not met"],
  ["CC(C)(O)C(=O)N1CCN(c2ccc(C(F)(F)F)c(C3=C(c4c[nH]c5ccccc45)C(=O)NC3=O)c2)CC1", "U2OS", "criterion met"],
  ["CCCCCCNC(=O)Nc1ccc(S(=O)(=O)Nc2ccc(CCNC[C@H](O)COc3ccc(O)cc3)cc2)cc1", "U2OS", "criterion met"],
  ["COC(c1ccccc1)(c1ccccc1)[C@H](Oc1nc(C)cc(C)n1)C(=O)O", "U2OS", "criterion met"],
  ["CCc1nn2c(C)cc(C)nc2c1Cc1ccc(-c2nnc(C3CCNCC3)o2)cc1", "U2OS", "criterion not met"],
  ["CN(C)C(=O)Cn1cc(-c2ccc(-c3nnc4ccccn34)cc2)cn1", "U2OS", "criterion not met"],
  ["CC(C)C[C@H](CO)Nc1nc(S[C@@H](C)c2ccccc2)nc2nc(N)sc12", "U2OS", "criterion met"],
  ["CCC(=O)OCC(=O)[C@@]1(OC(=O)CC)[C@@H](C)C[C@H]2[C@@H]3CCC4=CC(=O)C=C[C@]4(C)[C@@]3(Cl)[C@@H](O)C[C@@]21C [BECLOMETHASONE DIPROPIONATE]", "U2OS", "criterion not met"],
  ["O=c1nc2[nH]c3ccccc3nc-2c(=O)[nH]1", "U2OS", "criterion not met"],
  ["Cc1cc(O)c(-c2ccc([C@@H](C)CN(C)C)cc2)c2c1[nH]c(=O)c1sccc12", "U2OS", "criterion not met"],
  ["CC(C)C[C@@H]1NC(=O)[C@@H](C(C)C)NC(=O)[C@@H]2CCCN2C(=O)[C@@H](CC(=O)O)NC(=O)[C@@H](Cc2c[nH]c3ccccc23)NC1=O [BQ-123] (cyclo(L[dW][dD]P[dV]))", "U2OS", "criterion met"],
  ["COc1cc(OC2CCN(C(C)=O)CC2)ccc1C(=O)N1CCC(N2C(=O)OCc3ccccc32)CC1", "U2OS", "criterion not met"],
  ["Cn1cc(C(=O)OCC2CCN(CCNS(C)(=O)=O)CC2)c2ccccc21", "U2OS", "criterion not met"],
  ["CN1CCC(C(=O)c2cccc(NC(=O)c3c(F)cc(F)cc3F)n2)CC1", "U2OS", "criterion not met"],
  ["CCCCC[C@H](O)/C=C/[C@H]1[C@H](O)CC(=O)[C@@H]1CCCCCCC(=O)O", "U2OS", "criterion not met"],
  ["Cl.Cl.OCCOCCN1CCN(C(c2ccccc2)c2ccc(Cl)cc2)CC1 (centres undefined) [HYDROXYZINE HYDROCHLORIDE]", "U2OS", "criterion met"],
  ["COc1cc(Nc2ncc3c(n2)-c2ccc(Cl)cc2C(c2c(F)cccc2OC)=NC3)ccc1C(=O)O", "U2OS", "criterion met"],
  ["CN1CCN(c2ccc(Nc3c4ccccc4nc4ccccc34)cc2)CC1.Cl.Cl.O", "U2OS", "criterion not met"],
  ["Cc1c(Cc2ccc3ccccc3n2)c2cc(F)ccc2n1CC(=O)O", "U2OS", "criterion met"],
  ["COc1cc(C(=O)N2CC[C@@H](O)[C@@H](N)C2)cc2nc(-c3cc4ccccc4n3CC3CC3)n(C)c12.Cl", "U2OS", "criterion not met"],
  ["CN1C[C@H](C(=O)N[C@]2(C)O[C@@]3(O)[C@@H]4CCCN4C(=O)[C@H](Cc4ccccc4)N3C2=O)C[C@@H]2c3cccc4[nH]cc(c34)C[C@H]21.CS(=O)(=O)O [DIHYDROERGOTAMINE MESYLATE]", "U2OS", "criterion met"],
  ["Cc1cc(=O)n(C)c2cc(N3C(=O)CC[C@H](NS(=O)(=O)CC(C)C)[C@H]3c3ccc(Cl)cc3)ccc12", "U2OS", "criterion met"],
  ["COc1ccc2[nH]c(I)c(CCNC(C)=O)c2c1", "U2OS", "criterion met"]
]}

---

Tested on: HEK-293T
Assay: Multiplex assay against HEK293T
Type: toxicity, cell-based
Settings: human, 12 h, 1 µM, compound concentration 1 uM, replicate 1
REPORTED_METRIC: Population Hoechst High Intensity Objects (%)

{"columns": ["MOLECULE", "OBSERVED_VALUE"],
 "data": [
  ["COc1ccc2c(c1OCc1ccccc1)C[C@@H](C(=O)O)N(C(=O)C(c1ccccc1)c1ccccc1)C2", "7%"],
  ["CCC(=O)OCC(=O)[C@@]1(OC(=O)CC)[C@@H](C)C[C@H]2[C@@H]3CCC4=CC(=O)C=C[C@]4(C)[C@@]3(Cl)[C@@H](O)C[C@@]21C [BECLOMETHASONE DIPROPIONATE]", "7%"],
  ["O=c1ccc2ccc(OCCCCN3CCN(c4cccc5sccc45)CC3)cc2[nH]1", "6%"],
  ["CC(C)(O)C(=O)N1CCN(c2ccc(C(F)(F)F)c(C3=C(c4c[nH]c5ccccc45)C(=O)NC3=O)c2)CC1", "8%"],
  ["COc1c(Nc2ccc(S(C)(=O)=O)nc2C)ncnc1OC1CCN(C(=O)OC(C)C)CC1", "6%"],
  ["CN1C[C@H](C(=O)N[C@]2(C)O[C@@]3(O)[C@@H]4CCCN4C(=O)[C@H](Cc4ccccc4)N3C2=O)C[C@@H]2c3cccc4[nH]cc(c34)C[C@H]21.CS(=O)(=O)O [DIHYDROERGOTAMINE MESYLATE]", "5%"]
]}

---

System: HEK-293T
Assay: Multiplex assay against HEK293T
Type: toxicity, cell-based
Settings: human, 24 h, 1 µM, compound concentration 1 uM, replicate 2
Non-standard residues stand in square brackets, D forms with d. Residues, ends and D or L forms follow the SMILES beside them.
Assign class by Population Fragmented Nuclei (%): not lower than 9% means 1; lower than 9% means -1.

{"columns": ["MOLECULE", "CLASS"],
 "data": [
  ["Cl.Cl.OCCOCCN1CCN(C(c2ccccc2)c2ccc(Cl)cc2)CC1 (stereo not drawn) [HYDROXYZINE HYDROCHLORIDE]", 1],
  ["O=C(O)CCC/C=C\\CC1C(O)CC(O)C1/C=C/C(O)COc1cccc(Cl)c1 (stereo not drawn) [CLOPROSTENOL]", -1],
  ["COCCCN1CCC(NC(=O)c2cc(Cl)c(N)c3c2OCC3)CC1 [PRUCALOPRIDE]", -1],
  ["Cc1cc(NC(=O)NCCN2CCC(O)(Cc3ccccc3)CC2)c2ccccc2n1 [PALOSURAN]", 1],
  ["C[C@@H]1CC(=O)Nc2cccc(-c3ccc4c(c3)c(-c3cnn(C)c3)nn4C)c2N1", -1],
  ["OCCCNc1cc(-c2ccnc(Nc3cccc(Cl)c3)n2)ccn1", 1],
  ["CC(C)C[C@@H]1NC(=O)[C@@H](C(C)C)NC(=O)[C@@H]2CCCN2C(=O)[C@@H](CC(=O)O)NC(=O)[C@@H](Cc2c[nH]c3ccccc23)NC1=O [BQ-123] (cyclo(L[dW][dD]P[dV]))", -1],
  ["CSc1nc(NC2CCCC2)c([N+](=O)[O-])c(NC2CCCC2)n1 [GS-39783]", -1],
  ["Nc1nc(CC(=O)Nc2ccc(CCNC[C@H](O)c3ccccc3)cc2)cs1 [MIRABEGRON]", -1],
  ["Cc1nn(C)c2nc(NNC(=O)Nc3cc(Cl)nc(Cl)c3)cc(C(C)C)c12", -1],
  ["COc1cc(OC2CCN(C(C)=O)CC2)ccc1C(=O)N1CCC(N2C(=O)OCc3ccccc32)CC1", -1],
  ["CN1CCC(C(=O)c2cccc(NC(=O)c3c(F)cc(F)cc3F)n2)CC1", -1],
  ["Cn1cc(C(=O)OCC2CCN(CCNS(C)(=O)=O)CC2)c2ccccc21", 1]
]}
